biological target: Solute carrier family 2, facilitated glucose transporter member 1 (Homo sapiens) (UniProt P11166); assay: ST_JUDE_LEISH: Cytotoxicity at 2uM final concentration against transgenic Leishmania Mexicana promastigotes LmGLUT1 that are glucose transport deficient and complemented with the human glucose transporter GLUT1. Activity is measured by DNA content using SYBR green in vitro; assay type: functional
Sequence (P11166 whole entry): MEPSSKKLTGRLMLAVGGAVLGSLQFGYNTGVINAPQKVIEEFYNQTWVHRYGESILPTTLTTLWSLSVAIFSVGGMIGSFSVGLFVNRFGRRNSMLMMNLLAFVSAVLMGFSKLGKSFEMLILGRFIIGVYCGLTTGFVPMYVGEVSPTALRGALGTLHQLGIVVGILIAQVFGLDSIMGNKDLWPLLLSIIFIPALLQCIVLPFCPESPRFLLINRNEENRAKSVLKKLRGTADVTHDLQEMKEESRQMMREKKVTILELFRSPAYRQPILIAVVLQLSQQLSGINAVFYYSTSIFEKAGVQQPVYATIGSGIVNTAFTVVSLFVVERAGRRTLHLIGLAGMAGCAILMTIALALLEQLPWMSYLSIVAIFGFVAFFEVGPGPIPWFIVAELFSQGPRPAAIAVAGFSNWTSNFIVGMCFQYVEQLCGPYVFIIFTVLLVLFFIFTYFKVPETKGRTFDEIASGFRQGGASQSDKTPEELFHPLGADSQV
Quantity Measured: inhibition (%)
Answers are plain numbers, in %.

Take each entry in turn and give its inhibition.
1. O=S(=O)(Nc1cccc(CCN2CCC(N3CCCCC3)CC2)c1)c1ccc2c(c1)OCCO2
2. O=C(/C=C/c1ccc(Cl)cc1)NCCCCCN1CCN(C(=O)C=Cc2ccc(Cl)c(Cl)c2)CC1
3. CCN(CC)CCN(Cc1ccc(-c2ccc(C(F)(F)F)cc2)cc1)C(=O)c1c[nH]c2ccc(Br)cc12
4. Cn1cc(CN2CCC(OC(c3ccccc3)c3ccc(Cl)cc3)CC2)cn1 (centres undefined)
5. COc1ccc(-c2ccc(Nc3cccc(S(=O)(=O)CCN4CCC(CCN(C)C)CC4)c3)nc2)cn1
6. CCc1cc(N2CCN(c3ccccc3F)CC2)nc(SCc2ccc(C(=O)NC3CC3)o2)n1
7. Cc1[nH]c2ccc(-c3ccc(N(C)C)cc3)cc2c(=O)c1Cl

result:
[1.3, 2.44, 1.48, 4.78, -2.17, 2.82, 2.49]

# return inhibition for each item in the list
1. O=C(Nc1ccc(Cl)cc1)OCCn1nnnc1C(c1ccc(Cl)cc1)N1CCOCC1 (centres undefined)
2. CCCCCCCN1CCC(NC(=O)Nc2ccnc3ccc(OC)cc23)C(CO)C1 (centres undefined)

result:
1: 2.79; 2: -0.96

---

Could you please report measured inhibition for the items listed next?
target: Hexose transporter 1 (Plasmodium falciparum) (UniProt O97467); test: ST_JUDE_LEISH: Cytotoxicity at 2uM final concentration against transgenic Leishmania Mexicana promastigotes LmPfHT that are glucose transport deficient and complemented with the Plasmodium falciparum hexose transporter. Activity is measured by DNA content using SYBR green in vitro; format: functional
Answers are plain numbers, in %.

Please report inhibition for every entry that follows.
1. Cc1cc(Nc2ccc(OCc3ccccc3Cl)cc2)c2cc(Cl)ccc2n1
2. O=C(Nc1nc(-c2ccccn2)cs1)c1ccc(Br)s1
3. O=S1(=O)NC2(CCN(CCc3ccc(Cl)cc3)CC2)Nc2cc(F)cc(F)c21
4. COc1ccc(-c2cccc(NC(=O)c3ccc(Cl)cc3)c2)cc1CN(C)CCN(C)C
5. O=C(Cc1cccs1)NCC(c1ccccc1Cl)c1c[nH]c2ccccc12 (stereo not given)
6. O=C(Nc1cccc(-c2nn3ncccc3c2-c2ccnc(Nc3ccc(N4CCOCC4)cc3)n2)c1)c1c(F)cccc1F

result:
1: 16.4; 2: 4.54; 3: 8.79; 4: 2.66; 5: 0.74; 6: 16.6

Below are some compounds; for each one, tell me its inhibition.
1. N#Cc1ccc2[nH]cc(CN3CCC4(CC3)CN(CCNCc3ccccc3)C(=O)CO4)c2c1
2. O=C(NC(NC(=S)Nc1ccc([N+](=O)[O-])cc1)C(Cl)(Cl)Cl)c1cccc(Cl)c1 (stereo not given)
3. COc1ccc(CN2CCC(CNCCc3ccccc3Cl)CC2)cc1
4. CC(C)CNC(=O)c1ccc(-c2cccc(CN3CCC(N4CCCC4)CC3)c2)nc1

result:
-0.73
-1.54
11.1
2.17

---

molecular target: Hexose transporter 1 (Plasmodium falciparum); assay: ST_JUDE_LEISH: Cytotoxicity at 2uM final concentration against transgenic Leishmania Mexicana promastigotes LmPfHT that are glucose transport deficient and complemented with the Plasmodium falciparum hexose transporter. Activity is measured by DNA content using SYBR green in vitro; assay type: functional
Assign inhibition to each entry below.
Give bare numbers, in %.

# example entries with known answers
get_value(item= O=C(Cc1ccccc1)NC(CCN1CCC(NC(=O)c2ccc(Cl)cc2)CC1)c1ccc(Cl)c(Cl)c1 (centres undefined) , readout=inhibition) returns 0.27

Form field inhibition, entry CC(C)(C)c1cc(Cl)cc(C(=O)Nc2cc([N+](=O)[O-])ccc2Cl)c1O : 4.84

Notebook: O=C1CC(C(=O)O)CC(=O)N1 , inhibition read as -2.75

The measured inhibition associated with Cc1ccc(Oc2ccc(CNc3nc(Nc4cccc(F)c4)nc(Nc4cccc(F)c4)n3)cc2)cc1 reads 8.04

Briefly, inhibition measured for CC(C)C(=O)Nc1c(F)cc(F)cc1CCc1ccc(O)cc1 : 8.12

Reported inhibition of Cc1cc(NC(=O)c2cc(S(=O)(=O)N3CCCCC3)ccc2C)no1 : 4.4

# inhibition (compound: Cc1c(-c2cccc(C(C)(C)NCCCN3CCCCC3)c2)cnc(N)c1C ) is -0.25

Reported inhibition for COc1cc(Cc2cnc(N)nc2N)cc(OCCCCc2nnn[nH]2)c1OC was 1.16

Provide inhibition for all items below, preserving their order.
1. CCOC(=O)CC[C@H](NC(=O)c1ccc(NS(=O)(=O)c2ccc(-c3cnc(N)[nH]c3=O)cc2)cc1)C(=O)OCC
2. Clc1ccc(-c2cc(-c3csc(Nc4ccncc4)n3)on2)cc1
3. COc1ccccc1NC(=O)CSc1nc2cccnc2n1-c1ccccc1OC
4. CN1CCN(c2ccc3nccc(CCN4CCC(NCc5ccc6c(n5)NC(=O)CO6)CC4)c3n2)CC1
5. COc1ccc(CNC(=O)c2cnc3c(O)cccc3c2Nc2cccc(NC(=O)c3ccc(F)cc3)c2)cc1
6. CCN(CC)CCN(Cc1ccc(-c2ccc(C(F)(F)F)cc2)cc1)C(=O)Cn1c(CCc2cccc(F)c2F)nc(=O)c2ccc(C)cc21

result:
5.08
5.17
2.24
-0.01
78.5
1.15

I have 2 compounds here; please give me inhibition for each one.
1. Cc1cccc2nc(-c3ccc(-c4cccc(NC(=O)C(C)CN5CCN(C)CC5)c4)cc3)[nH]c12 (centres undefined)
2. CN1CCN(Cc2ccc(-c3ccc4c(Nc5cc(O)c(Cl)cc5F)ccnc4c3)o2)CC1

result:
0.81
4.6

---

target: Solute carrier family 2, facilitated glucose transporter member 1 (Homo sapiens) (UniProt P11166); test: ST_JUDE_LEISH: Cytotoxicity at 2uM final concentration against transgenic Leishmania Mexicana promastigotes LmGLUT1 that are glucose transport deficient and complemented with the human glucose transporter GLUT1. Activity is measured by DNA content using SYBR green in vitro; format: functional
Tag: fulfilled if measured inhibition is not below 2%, not fulfilled if it is.

// below: answered compounds
query: Evaluate CCCn1c(=N)c(C(=O)NCCc2ccccc2)cc2c(=O)n3cccc(C)c3nc21 : inhibition at minimum 2%?
result: fulfilled

query: Does Cc1cccc2[nH]cc(C3CCN(CCC4CCN(C(=O)/C=C/c5ccc(Cl)c(Cl)c5)CC4)CC3)c12 have a reported inhibition of at least 2%?
result: not fulfilled

query: Dear colleague, could you confirm whether CC(=O)Nc1ccc(CN2CCC(NC(=O)c3ccc(-c4ccc(N(C)C)cc4)s3)CC2)cc1 has inhibition at or above 2%?
result: fulfilled

query: Identify whether the reported inhibition of the following compound is 2% or greater: CC(C)(C)c1ccc(NC(=O)c2cccc(CN3CCN(Cc4cccc(O)c4)CC3)c2)cc1
result: not fulfilled

query: Would you say CN(C)CCNCc1ccc(-c2ccc3c(Nc4ccc(Cl)cc4F)ccnc3c2)o1 shows inhibition at minimum 2%?
result: not fulfilled

New cases:
query: # check: inhibition of CCN1CCN(CC(O)CNC(=O)Nc2ccc(Cl)cc2)CC1 (centres undefined) is greater than or equal to 2%
result: fulfilled

query: inhibition >= 2% for COc1ccc(-c2cc(C(=O)Nc3ccc4[nH]c(-c5ccccc5)nc4c3)[nH]n2)cc1 ?
result: fulfilled

query: Does Cc1c(CC(=O)NCCC2CCN(CCCCCNC(=O)/C=C/c3ccc(Cl)c(Cl)c3)CC2)sc2ccc(Cl)cc12 have a reported inhibition of at least 2%?
result: fulfilled

query: State whether the measured inhibition reaches 2%, counting equality as reaching it, for O=C(/C=C/c1ccc(Cl)c(Cl)c1)NCCCCCN1CCCN(C(=O)Nc2ccc(F)c(Cl)c2)CC1
result: not fulfilled

query: // inclusive: inhibition at least 2%? input: Cc1cc(N2CCCC2)nc(Nc2ccc(NC(=O)c3ccc(Br)o3)cc2)n1
result: fulfilled

query: Record CCCCc1cc(Cc2cnc(N)nc2N)cc(OC)c1OC ; criterion: inhibition no lower than 2%. Met?
result: fulfilled

query: Does inhibition meet or surpass 2% for COc1cccc(NC(=O)c2ccc(NCCCN3CCC(C)CC3)c([N+](=O)[O-])c2)c1 ?
result: fulfilled

---

target: Hexose transporter 1 (Plasmodium falciparum) (UniProt O97467); assay: ST_JUDE_LEISH: Cytotoxicity at 2uM final concentration against transgenic Leishmania Mexicana promastigotes LmPfHT that are glucose transport deficient and complemented with the Plasmodium falciparum hexose transporter. Activity is measured by DNA content using SYBR green in vitro; assay type: functional
Quantity Measured: inhibition (%)
Give bare numbers, in %.

Recorded result, Cc1cccc2nc(-c3cccc(-c4cccc(NC(=O)CC5NC(=O)c6ccccc65)c4)c3)[nH]c12 (stereo not given) , inhibition: 1.34

// inhibition value for COC(=O)c1ccc(CCC(C)NCC(O)c2cccc(C(F)(F)F)c2)cc1 (stereo not given) : 0.12

O=C(NCCN1CCCC1)c1cccc(-c2ccc(-c3nc4cc(F)ccc4[nH]3)cc2)c1 has a reported inhibition of -0.39

// sample CCCCOc1ccc(N2C(N)=NC(N)=NC2(C)C)cc1 , its inhibition was 1.89

New cases:
inhibition reading for Cc1cccc2nc(-c3ccc(-c4ccc(CN5CCCCC5)cc4)s3)[nH]c12 : 2.36
